molecular target: Thromboxane-A synthase (Homo sapiens); assay: biochemical; assay type: tissue-based, Platelet; conditions: platelet;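 further: enzyme inhibition assay with PGH2 supplied as substrate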; further: in other assays of this panel Not Active means under 50% inhibition at 10 µM
Sequence (P24557 whole entry): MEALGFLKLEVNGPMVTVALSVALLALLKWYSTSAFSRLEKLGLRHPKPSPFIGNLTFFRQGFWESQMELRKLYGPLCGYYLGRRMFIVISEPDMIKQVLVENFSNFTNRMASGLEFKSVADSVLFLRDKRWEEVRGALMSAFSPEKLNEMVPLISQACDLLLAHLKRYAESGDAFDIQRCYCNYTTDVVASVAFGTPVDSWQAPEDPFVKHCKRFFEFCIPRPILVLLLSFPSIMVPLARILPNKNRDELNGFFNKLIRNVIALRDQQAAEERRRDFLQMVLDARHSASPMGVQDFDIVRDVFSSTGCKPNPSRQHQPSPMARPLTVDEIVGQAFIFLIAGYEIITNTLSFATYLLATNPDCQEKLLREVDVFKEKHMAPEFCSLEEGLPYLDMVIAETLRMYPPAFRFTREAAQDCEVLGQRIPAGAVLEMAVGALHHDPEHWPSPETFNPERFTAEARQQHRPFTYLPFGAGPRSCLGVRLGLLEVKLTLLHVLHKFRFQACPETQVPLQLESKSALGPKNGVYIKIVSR
Assay readout: IC50

[[record]]
compound = "CCCCNc1ccc(C(=O)OCCN(C)C)cc1"
assay_readout = "IC50"
value = "Not Active"

[[record]]
compound = "Nc1ccn([C@@H]2O[C@H](CO)[C@@H](O)[C@@H]2O)c(=O)n1"
assay_readout = "IC50"
value = "Not Active"

[[record]]
compound = "C[C@@H]1CC[C@@]2(OC1)O[C@H]1[C@@H](O)[C@H]3[C@@H]4CC[C@H]5C[C@@H](O[C@@H]6O[C@H](CO)[C@H](O[C@@H]7O[C@H](CO)C(O)[C@H](O[C@@H]8OC[C@@H](O)[C@H](O)[C@H]8O)[C@H]7O[C@@H]7O[C@H](CO)[C@H](O)[C@H](O[C@@H]8O[C@H](CO)[C@@H](O)[C@H](O)[C@H]8O)[C@H]7O)[C@H](O)[C@H]6O)[C@H](O)C[C@]5(C)[C@H]4CC[C@]3(C)[C@H]1[C@@H]2C (stereo partly drawn)"
assay_readout = "IC50"
value = "Not Active"

